System: HL-60
EXPERIMENT_SUMMARY: NCI tumour cell line growth inhibition, 48 h
The source made the active and inactive calls. No stated cut-off is given here; in the data, active = GI50 up to about 1.1 µM and inactive = higher.
Return exactly one item of active, inactive

COc1ccc(/C=C(\C#N)c2ccccn2)cc1OC = inactive
O=c1[nH]c(=O)n(COCc2ccccc2)c2ccsc12 = inactive
CCOC(=O)C(C#N)(Cc1c[nH]c2ccccc12)NC(C)=O (stereo not given) = inactive
C[C@]12CCc3nonc3C1CC[C@@H]1C2CC[C@]2(C)NC(=O)CCC12 (stereo not given in full) = inactive
O=C1C[C@@H](c2ccccc2)NCCCCN(O)CCCN1 = inactive
CC(=O)Nc1ccc2nc(-c3cccc(F)c3)cc(O)c2c1 = inactive
CCN(CC)c1ccc2c(c1)Nc1cc(=C(C#N)C#N)c3ccccc3c1=N2 = inactive
CCCCCCCCCCCCCCCC(=O)OCC(C[As](=O)(O)O)OC(=O)CCCCCCCCCCCCCCC (stereo not given) = inactive

Alright, here's another compound for you.
Request: Called result for `O=c1c(C(c2cccnc2)c2c(O)oc3cc(O)ccc3c2=O)c(O)oc2cc(O)ccc12`
Result: inactive

====

System: SK-MEL-28
EXPERIMENT_SUMMARY: NCI tumour cell line growth inhibition, 48 h
Activity calls are given as the source filed them. No stated cut-off is given here; in the data, active = GI50 up to about 1.1 µM and inactive = higher.
Return exactly one item of yes (1) = active, no (0) = inactive

Some solved entries appear below for comparison.
Clc1ccccc1-c1nc2cc(C34CC5CC(CC(C5)C3)C4)ccc2[nH]1 = no (0)
Nc1ccc(C(c2ccccc2)(c2ccccc2)c2ccccc2)cc1 = no (0)
CCC(C)C1NC(=O)CNC(=O)C2Cc3c([nH]c4cc(O)ccc34)[S+]([O-])CC(NC(=O)CNC1=O)C(=O)NC(CC(=O)O)C(=O)N1CC(O)CC1C(=O)NC(C(C)C(O)CO)C(=O)N2 (configuration not stated) = no (0)
Clc1ccc(CCN[C@H]2CCCC[C@H]2N2CCCC2)cc1Cl = no (0)
Nc1nc(-c2ccccc2/N=N/N2CCCC2)nc2ccccc12 = no (0)

Request: Called result for `CN(C)CCNC(=O)c1ccc(NCCCN(C)CCCNc2ccc(C(=O)NCCN(C)C)c3nc4ccc([N+](=O)[O-])cc4c(O)c23)c2c(O)c3cc([N+](=O)[O-])ccc3nc12`
Result: yes (1)

Request: Called result for `Cc1ccc(/N=N/C(=N/NC(=O)c2cc(Cl)ccc2C(=O)c2ccccc2)c2ccc(N(CCC#N)CCC#N)cc2C)cc1`
Result: no (0)

Request: Called result for NC(=O)c1csc(C2(O)COC(CO)C2O)n1 (configuration not stated)
Result: no (0)

Request: Called result for `O=C1C(c2ccccc2)=C(c2ccccc2)C(c2ccc(CCCCCCc3ccc(C4=C(c5ccccc5)C(=O)C(c5ccccc5)=C4c4ccccc4)cc3)cc2)=C1c1ccccc1`
Result: no (0)

Request: Called result for CCCCCCCCCCCCCCCCCCNc1ccn(C2OC(CO)C(OP(=O)(O)OCC(COP(=O)(O)OCC3OC(n4cc(F)c(NCCCCCCCCCCCCCCCCCC)nc4=O)CC3O)OC(=O)CCCCCCCCCCCCCCC)C2O)c(=O)n1 (configuration not stated)
Result: no (0)

====

Reported GI50 is given for each of the following compounds.
Tested on: DU-145
EXPERIMENT_SUMMARY: NCI tumour cell line growth inhibition, 48 h
The source made the active and inactive calls. Rule as the data show it: active = GI50 up to about 1.1 µM and inactive = higher.

CC(=O)OCC1OC(SC2=N/C(=C\c3ccc(Br)s3)C(=O)N2CN2CCOCC2)C(OC(C)=O)C(OC(C)=O)C1OC(C)=O (stereo not drawn) = 16.5 µM (inactive)

Turning now to a further compound:
For the compound `CCOC(=O)[C@H](Cc1ccc(O)cc1)/N=C1/[C@H]2CCC[C@]1(O)[C@@](C)([N+](=O)[O-])C2` , the measured GI50 on DU-145 was > 100 µM (inactive)
